Data provenance is ChEMBL document CHEMBL2169757.

Reported pIC50 values are given for each entry in this list.
# ASSAY METHOD TEXT: Inhibition of compound-pretreated Ebolavirus GP pseudotyped in HIV virions infected in human 293T cells assessed as inhibition of viral-cell entry after 48 hrs by luciferase gene assay relative to DMSO-treated control
# Format: cell-based
# TEST PARAMETERS: Zaire ebolavirus, HEK-293T
Please treat pIC50 as minus the base-10 logarithm of the molar concentration.

Solved cases (3 shown):
[[record]]
compound_structure_string = "CCN(CC)CC(=O)NCc1cn(-c2c(Br)cc(Br)cc2Br)nn1"
observed = 5.30

[[record]]
compound_structure_string = "CCN(CC)CC(=O)NCc1cc(-c2cccc(OC)c2)no1"
observed = 5.00

[[record]]
compound_structure_string = "CCN(CC)CC(=O)NCc1cc(-c2ccc(OC)cc2)no1"
observed = 4.52


Req: Fill in reported pIC50 for this entry: `CCN(CC)CC(=O)NCc1cn(-c2ccc(I)cc2)nn1`
Resp: 5.30

Req: Fill in reported pIC50 for this entry: `CCN(CC)CC(=O)NCc1cc(-c2ccc(I)cc2)no1`
Resp: 5.60
